# assay target: T1, His-tagged P3028 (human, also: His-tag, terminus and sequence not given here)
# T1 construct: in solution at 0.5 ug/mL over the peptide cards; found with anti-His-tag antibody and rabbit anti-mouse peroxidase (rampo); also called PGE73; not shown: His-tag
# T1 peptide: VFDEFKPLVEEPQNLIK
# experiment notes: PEPSCAN chip ELISA, His-P3028 in solution;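 also: score is the raw OD at 405 nm from peroxidase colour with ABTS, imaged by CCD camera before and after staining, with wells showing air bubbles set to zero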
No end group written: not given here.
readout name: RAMPO Score (rampo score)
Write the number in rampo score without appending the unit.

A selection of reference data follows.
KKWDTFFVKLSLFTER [SEQ ID NO 458] ... 341
KKLLTFFVKLSLFTER [SEQ ID NO 491] ... 303
KKLFTFFVKLSLFTER [SEQ ID NO 426] ... 380

Please find the next binder below.
Prompt: Looking for the measured RAMPO Score of FKLDTFFVKLSLFTER [SEQ ID NO 465] , can you help?
Completion: 332
